# run-description: soluble fraction after stress (log2 fold change); higher = more stays soluble; pooled small domains, quantitative proteomics
# condition-context: stress: pH 4
Give measured soluble fraction (log2) for each item. Keep answers brief.
The reply should be a number, written without any unit.

Supply measured soluble fraction (log2) of HMIEKGSDALEKELRKNNLSINEFLTNKNIDIILDELKLKDIDDLYVNIALGKYTPNQIIKIVNK in your reply.
-0.61

Supply recorded soluble fraction (log2) for HMISDQENDLNLKHLFDTADQNKDGLILESELKMLMTNLEINKETYDTVMKQITPAGMDYKTFSSL here.
-0.584

Identify soluble fraction (log2) associated with the sequence HMTNLKALRESKGVSQQTVADYLGITRQAYGNYETGKRQADYAALLRLAAFFGVSVDALLQP
0.102

Specify measured soluble fraction (log2) for HMSGEVLTAVVPETASGERLDKVLPQIFPPYSRSQLQTWLKEGRVTLDREIPAARLAVIGGETLRLEVPSL .
-0.0494

---

Provide the reported soluble fraction (log2) of each item.
# run-description: soluble fraction after stress (log2 fold change); higher = more stays soluble; pooled small domains, quantitative proteomics
# condition-context: stress: pH 4
The response must contain the number and no unit.

Please list soluble fraction (log2) recorded for the sequence HMQDREKNIAEGRDIIEHEFMRLGISLSRYDLDGLASKLNVKAGDDVLAGVGAGDIRVSQIISQLG
-0.747

Note down soluble fraction (log2) recorded for HMFNPEQDPKQLTGRERAVADLIGLGANNAEIAIRLSMSERTVKAHLTSIFQQLNVRDRVQLALVMNQL
-0.541

For HMKAPPLTDREKEILRWVAAGLQNKEIAHKLGISLATVRNHIHNILEKLDVHSKLEAVSLAFRQGWVS , write its soluble fraction (log2).
-0.133

Answer with reported soluble fraction (log2) of HMIMISKSFEINEDNINKRLDIFLTENLDGLSRGIVQKYISLEQITVNKESSHKDYRLKLDDFIEVKIQAH
-1.06

---

# run-description: soluble fraction after stress (log2 fold change); higher = more stays soluble; pooled small domains, quantitative proteomics
# condition-context: stress: pH 4
Task for the reader: assign each of the following sequences its reported soluble fraction (log2).
// no unit, no text: just the number

Provide measured soluble fraction (log2) value, entry: HMEILPAYRDIKKEALLGNINAEFKYVNLLLEHNYIEQAFNIIEDMKTRVDDNPEFEELKSRVADAYLMY
-1.48

Quote soluble fraction (log2) reported for HMKLLLSANISKLRKKYSMTQEQLAEALGVTFASVSKWERGVATPELKLIAEMADMFEVSIDALIGYEFRN please.
-1.41

Return soluble fraction (log2) (reported value) for this sequence: HMYMKTITEQFGERLKKIRTQKSLSQEQLSYLADIDRSYISDVERGARNISLENIYKLASALNIPPYLVLL
-0.344

Please give the documented soluble fraction (log2) of HMNKVDEEKNAELVSTIQNKFSDVSAATKKKVKAFMAEHDIPNFKNADEIPTANLEAIVAMLNED
0.22

State its soluble fraction (log2): HMDANAYTYKVSEDTDTRTGEKIFLVKVAEKLSRKEYIVVNNYMKSLGSYYSKFKHAFLFKENPTEKL
-0.246

Note soluble fraction (log2) for the sequence shown: HMKFLYQKAREEIISLIQDGEIKPSEKIMPERELSELLGYNRMTIKKAINSLVAEGVLMKKRGAGTFLLG
-0.45

Determine its reported soluble fraction (log2): HMNDGEIAAPVSGTLQSFKVEDGQTVSEGDLVAVMEAMKMETQILATKGGTIRLLVKEGDYLQAGHALMTI
-1.07

Indicate its recorded soluble fraction (log2); the sequence in question is HMNTEEITYSRFQQMLEAGEISQVSIESNRILILPSEETGIEKVLYTGIINDPGLVERLNSAGVEFRAPIE
-1.16

---

# run-description: soluble fraction after stress (log2 fold change); higher = more stays soluble; pooled small domains, quantitative proteomics
# condition-context: stress: pH 4
Assign yes to entries whose soluble fraction (log2) meets or exceeds -0.3; assign no to the rest.

Can HMSKETTYEVLSLKGDEWQTDTIYSDRDEAIEAARNLHGDPHIDGAKVISEVYDDKTGGSKETTIFNT be said to have soluble fraction (log2) at or above -0.3?
yes

Determine whether this sequence has soluble fraction (log2) no lower than -0.3: HMSDIYSLFERELGRTLSSYEYEIIGKWIEKGVSEDTIKRALKEAILNGVTNFKYIDKIIYDWSKN
no

Is reported soluble fraction (log2) greater than or equal to -0.3 here: HMAADLIGLEARVTLPLTEDQRGFIETSVRGSLVRRAALSASGRLDRGQRVVILRSEGTTLIVDAL
no

I'd appreciate it if you could say whether HMEETLLLRESVRSALAMLAPTLRITLEMYVYRQLSPTEIALRSGVSISMVRRRLGYGLYKLRTQLIDA has soluble fraction (log2) at least equal to -0.3.
no

API: above_or_equal(metric=soluble fraction (log2), cutoff=-0.3) for item HMGGKWKLRILLALENSAQDALRYGEIKNIVSGITDMMLSQSLRELTADGLIERRQYQEIPPKVEYRLS
no

Exam item: decide whether the reported soluble fraction (log2) for HMKQISNTDELEAMIQKIIEDNSQQVEKFRSGNEKLFGWFVGQVMKNTQGAANPKVVNEILKKSLK is at least -0.3.
yes

Decide: is the reported value of soluble fraction (log2) for HMRLPNHYGSVVKLSGKRRRPFMVRGGVYGYDDRGYPQYVIVGYTETREQGLTMLAEYNRNP equal to or greater than -0.3?
no

Could you verify whether the entry HMENITTILRSIKNEIKKNSTFVGDDFVNQARSMNQGQIKEKSIYGHGTKKEIEELRDEGVDVLNIPWIT shows soluble fraction (log2) of no less than -0.3?
yes

---

# run-description: soluble fraction after stress (log2 fold change); higher = more stays soluble; pooled small domains, quantitative proteomics
# condition-context: stress: pH 4
Can you tell me soluble fraction (log2) for the items I'm about to list?
Please reply with the number alone, leaving off any unit.

Supply soluble fraction (log2) value. Item: HMDIFFEKIFNILIGYNQNQENLISEKSILNFHLSHKSNSNFEYIPDEKTPKYIWKYLSNYNLLE
-0.477

In one line, give reported soluble fraction (log2) of the entry HMRLPVELTDREVEVLRLLAQAMSNGEIARELYIGEATVKTHVSNVLQKLGARDRVAAVVWAHRYGL .
-1.16

Note soluble fraction (log2) for the sequence shown: HMAMTRTEYLNQLKHYLKRLPHTDYEEAMDYFKEYFEEAGPENEAQVIQDLGNPKEAAYEILSQLL
-0.615

Fill in soluble fraction (log2) for record HMLKNYATPEQRAQLDMLKDKGIIGENELMQLGKYPSQDKASEVLENHADAVKMLDSDEISNRAEAIRSHD
0.22

Return value of soluble fraction (log2) for input HMINNINKLPETQFIKLFANIFENSQFIAVALYKKKGDGFSDFKDLINKIMDIFENTTKEKKLKILNA , no commentary.
-0.173

Please give measured soluble fraction (log2) of the following entry: HMKNSIKLDNFVGMSYDEVISNKEYDFNFVSAFEKTSDYEAGTIIGQTPAAEERVMVGTTVTLTVAQP
0.158

Specify reported soluble fraction (log2) for the sequence shown: HMNGDWISARQEYYIRGLWDLASRAKDEASLQAMLQRIAGVTQIEWISKEKATKVILALRDIAKK
-0.154

Indicate the recorded soluble fraction (log2) value for this sequence: HMIAAPFVVKDIRVDGVQPATGEAIISSLPVKVGQTATDADVSNVVRQLFSLNRFQNVQATREGNTLVIKV
0.0417

Note soluble fraction (log2) for the sequence shown: HMNFGEVLQTKRKSMGLTQEDLADKLFVSSETISNWETNKTTPDIDNVIRISQLFDISLNNLLL
-0.89

Supply measured soluble fraction (log2) of HMAEANTEADFVAIGVRAELLPILQKLGVHTIEQLKGIKATKLFNDIPGMRKKLKLDAVQNPTLQEIEGWL in your reply.
-0.393

Please indicate soluble fraction (log2) recorded for HMADMKIHLRPYAHDTNRWHVDIRLMHPTAATEIRKRLVAPAGLSEAQARAWGERQVPTILGKALGVI
-0.042

For the sequence HMEVSKETFPAYVAVDSLPVYKSASTSSSKVTTIDFGREVTVVETRGGWAKIQYGSYKGFAEIEGMSKN , report soluble fraction (log2).
-0.0269

Kindly indicate its recorded soluble fraction (log2). Item: HMPELPPHELLRALMVEHDIKQSELPEVGPQPVVSDVLAGKRALNLRQVAALAARFHVPMEVFT
-0.015

Report soluble fraction (log2) for HMIYNSGTTDSRGEAIVGGYLVTVTDTDTKDPVANAAVTLHKDNSISIRLPNSRLLDYADQTTVTVQLV
-0.00411

Provide only the value of recorded soluble fraction (log2) for HMYYQEDHDIILEETEDVTDPYLITLRGYIFLNNLQWVAARQAFLSADERFRHRHYSALIAPIMQTIDNAA
-1.49

Quickly give me recorded soluble fraction (log2) for HMGGGRELGLDPETGKKISVRLGKFGPFVQLGESGEEDKPVFANLGKNQSIATLSLEEAIALLARPK
0.189

Specify measured soluble fraction (log2) for HMTELSLSEQAYQQLRRMIVRLDFAPGDVLREEALQEALGMSRTPIREALQRLAREHFVTVIPRRGMFVS .
-1.22
